- TARGET_OR_TEST_SYSTEM: ACVR2A (Homo sapiens (Human), UniProt P27037)
- Sequence (P27037 26-118): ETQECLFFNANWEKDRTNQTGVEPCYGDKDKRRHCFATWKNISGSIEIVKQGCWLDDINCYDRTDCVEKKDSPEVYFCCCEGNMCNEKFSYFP
- ASSAY_SUMMARY: SPR, receptor-Fc dimer captured (avidity), single 80 nM injections
EXPERIMENTAL_ENDPOINT: Kd (pM)
Hi! Could you send only the number? It should be in pM, unit omitted.

Known results for binders:
BINDER: ActivinB (protein) chain 1: GLECDGRTNLCCRQQFFIDFRLIGWNDWIIAPTGYYGNYCEGSCPAYLAGVPGSASSFHTAVVNQYRMRGLNPGTVNSCCIPTKLSTMSMLYFDDEYNIVKRDVPNMIVEECGCA chain 2: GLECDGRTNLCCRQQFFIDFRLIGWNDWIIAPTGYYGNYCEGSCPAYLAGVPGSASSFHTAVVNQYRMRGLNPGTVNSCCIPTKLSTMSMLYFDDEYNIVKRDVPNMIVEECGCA
UNIT_ABBREVIATION: pM
Kd: 53
//
BINDER: BMP10 (protein) chain 1: AKGNYCKRTPLYIDFKEIGWDSWIIAPPGYEAYECRGVCNYPLAEHLTPTKHAIIQALVHLKNSQKASKACCVPTKLEPISILYLDKGVVTYKFKYEGMAVSECGCR chain 2: AKGNYCKRTPLYIDFKEIGWDSWIIAPPGYEAYECRGVCNYPLAEHLTPTKHAIIQALVHLKNSQKASKACCVPTKLEPISILYLDKGVVTYKFKYEGMAVSECGCR
UNIT_ABBREVIATION: pM
Kd: 1000

Continue with the binder presented below.
stdin: Please report the recorded Kd for GDF11 (protein) chain 1: GLDCDEHSSESRCCRYPLTVDFEAFGWDWIIAPKRYKANYCSGQCEYMFMQKYPHTHLVQQANPRGSAGPCCTPTKMSPINMLYFNDKQQIIYGKIPGMVVDRCGCS chain 2: GLDCDEHSSESRCCRYPLTVDFEAFGWDWIIAPKRYKANYCSGQCEYMFMQKYPHTHLVQQANPRGSAGPCCTPTKMSPINMLYFNDKQQIIYGKIPGMVVDRCGCS .
stdout: 52
